- tested_on: T1, hPRLR.mFc (soluble dimeric human PRLR) (Homo sapiens, UniProt P16471)
- T1 construct: dimeric (hPRLR.mFc)
- protocol_summary: Surface plasmon resonance (Biacore T200), mAb-capture format
- Format: binding
- condition_label: 37° C., antibody-capture format, analyte hPRLR.mFc
measured_metric: T½ (h)
Report only the number, with the unit h understood.

T½ recorded for this molecule, H1H6774P: anti-PRLR antibody, human IgG1 Fc; HCVR/LCVR SEQ ID NOs 34/42 (antibody, V domains shown, human IgG1 Fc) VH: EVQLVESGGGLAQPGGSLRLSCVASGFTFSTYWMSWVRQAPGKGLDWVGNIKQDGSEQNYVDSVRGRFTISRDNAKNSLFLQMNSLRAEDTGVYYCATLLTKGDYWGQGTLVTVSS VL: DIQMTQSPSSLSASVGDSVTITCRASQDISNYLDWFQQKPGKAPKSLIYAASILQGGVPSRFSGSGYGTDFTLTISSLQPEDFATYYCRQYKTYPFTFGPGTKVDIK , is 1
